# reported IC50; entries follow
# Measured Target: Human recombinant MMP-1 (Homo sapiens, UniProt P03956)
# Construct: made in house; host or cells: MMP-1-transfected HT-1080 cells (spent media)
# Sequence (P03956 100-469): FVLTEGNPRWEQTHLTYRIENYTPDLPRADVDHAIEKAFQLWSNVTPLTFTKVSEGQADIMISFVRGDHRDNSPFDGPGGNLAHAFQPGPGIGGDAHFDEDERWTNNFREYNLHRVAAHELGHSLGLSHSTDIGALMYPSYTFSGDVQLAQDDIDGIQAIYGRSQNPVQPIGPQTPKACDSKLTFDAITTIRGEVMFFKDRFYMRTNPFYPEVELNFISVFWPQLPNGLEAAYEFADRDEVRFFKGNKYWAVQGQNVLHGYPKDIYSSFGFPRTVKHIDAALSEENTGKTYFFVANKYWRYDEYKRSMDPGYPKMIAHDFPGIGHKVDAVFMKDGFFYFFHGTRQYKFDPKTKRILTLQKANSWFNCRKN
# Assay Protocol: In vitro MMP inhibition, IC50 determination (fluorogenic substrate I)
# Assay type: biochemical
# Settings: value outside parenthesis

Chemical String: COCCN1CCC(C(=O)NO)(S(=O)(=O)c2ccc(OCCCc3nc(-c4ccccc4OC(F)(F)F)no3)cc2)CC1
Quantity Name: IC50
Test Result: > 10 µM
//
Chemical String: Cc1cc(C(=O)CCCCOc2ccc(S(=O)(=O)C3(C(=O)NO)CCN(C4CC4)CC3)cc2)ccc1OC(C)C
Quantity Name: IC50
Test Result: > 10 µM
//
Chemical String: O=C(NO)C1(S(=O)(=O)c2ccc(OCCc3cccc(-c4ccccc4F)c3)cc2)CCOCC1
Quantity Name: IC50
Test Result: > 10 µM

As a next step, examine the compound that follows.
The compound O=C1CN(c2ccccc2Cl)C(=O)N1CCCOc1ccc(S(=O)(=O)C2(C(=O)NO)CCOCC2)cc1 showed IC50 equal to > 10 µM
